- experimentNotes: Anti-inflammatory Test by Whittle's Method (acetic acid, dye in peritoneal exudate)
- Type: in vivo, Male ddY mice
- settings: p.o.; combined with emorfazone 28.8 mg/kg; theoretical additive dose
recordedMetric: theoretical additive ED30 dose, with emorfazone 28.8 (mg/kg)
API: value field is a number in mg/kg; no unit string.

The reported theoretical additive ED30 dose, with emorfazone 28.8 of the molecule CC(C(=O)O)c1cccc(C(=O)c2ccccc2)c1 (centres unmarked) was 2.4

get_value(item= CC(C(=O)O)c1ccc(-c2ccccc2)c(F)c1 (centres unmarked) , readout=theoretical additive ED30 dose, with emorfazone 28.8) returns 3.0

So, CC(C)Cc1ccc(C(C)C(=O)O)cc1 (centres unmarked) ? Its theoretical additive ED30 dose, with emorfazone 28.8 was 57

Briefly, theoretical additive ED30 dose, with emorfazone 28.8 measured for `CC(=O)Oc1ccccc1C(=O)O` : 168.8

Item: `COc1ccc2cc([C@H](C)C(=O)O)ccc2c1` | theoretical additive ED30 dose, with emorfazone 28.8: 9

Record `Cc1cccc(Nc2ccccc2C(=O)O)c1C` . Reported theoretical additive ED30 dose, with emorfazone 28.8: 61.5

theoretical additive ED30 dose, with emorfazone 28.8 recorded for this molecule, `CCCCC1C(=O)N(c2ccccc2)N(c2ccccc2)C1=O` , is 131.3

theoretical additive ED30 dose, with emorfazone 28.8 in this record for `COc1ccc2c(c1)c(CC(=O)O)c(C)n2C(=O)c1ccc(Cl)cc1` : 1.65

----------
Provide the recorded LD50 at 168 h for the entries that follow.
- experimentNotes: in vivo
- settings: mouse, po, LD50 dose obtained experimentally, with emorfazone 240, p.o., combined with emorfazone 240 mg/kg
Enter your answer as a number in mg/kg; do not include the unit.

For reference, reported LD50 at 168 h for `COc1ccc2c(c1)c(CC(=O)O)c(C)n2C(=O)c1ccc(Cl)cc1` stands at 13

Recorded LD50 at 168 h (compound `CC(=O)Oc1ccccc1C(=O)O` ): 1000

# LD50 at 168 h (compound: CC(C(=O)O)c1ccc(-c2ccccc2)c(F)c1 (stereo not shown) ) is 155

Lookup result for CC(C(=O)O)c1cccc(C(=O)c2ccccc2)c1 (stereo not shown) ; measured LD50 at 168 h: 380

----------
Provide the recorded theoretical additive LD50 dose, with emorfazone 240 for the entries that follow.
- settings: p.o., combined with emorfazone 240 mg/kg
Your answer should be a plain number; it is taken to be in mg/kg.

`CCCCC1C(=O)N(c2ccccc2)N(c2ccccc2)C1=O` has a reported theoretical additive LD50 dose, with emorfazone 240 of 427.5

# theoretical additive LD50 dose, with emorfazone 240 of CC(C(=O)O)c1ccc(-c2ccccc2)c(F)c1 (stereo not drawn) = 157.5

theoretical additive LD50 dose, with emorfazone 240 reported for this compound CC(C)Cc1ccc(C(C)C(=O)O)cc1 (stereo not drawn) : 862.5

Just so you know, measured theoretical additive LD50 dose, with emorfazone 240 for `Cc1cccc(Nc2ccccc2C(=O)O)c1C` came out at 892.5

Reported theoretical additive LD50 dose, with emorfazone 240 for `COc1ccc2c(c1)c(CC(=O)O)c(C)n2C(=O)c1ccc(Cl)cc1` was 8.5

Summary for this compound, `CC(=O)Oc1ccccc1C(=O)O` : theoretical additive LD50 dose, with emorfazone 240 is 945

----------
I'd appreciate it if you could supply ED50 dose obtained experimentally, with emorfazone 10 values for the items below.
- experimentNotes: Analgesic Test by Phenylquinone Writhing Method
- Format: in vivo, Male ddY mice
- settings: p.o.; combined with emorfazone 10 mg/kg (1/4 of its ED50)
Write the figure, then the unit, nothing else.

Lab book: ED50 dose obtained experimentally, with emorfazone 10 of `CCCCC1C(=O)N(c2ccccc2)N(c2ccccc2)C1=O` noted as 32 mg/kg

The compound listed as `Cc1cccc(Nc2ccccc2C(=O)O)c1C` has a reported ED50 dose obtained experimentally, with emorfazone 10 of 21 mg/kg

Lab note: CC(C)Cc1ccc(C(C)C(=O)O)cc1 (centres unmarked) gave ED50 dose obtained experimentally, with emorfazone 10 of 8 mg/kg

// ED50 dose obtained experimentally, with emorfazone 10 value for `CC(=O)Oc1ccccc1C(=O)O` : 115 mg/kg

get_value(item= CC(C(=O)O)c1cccc(C(=O)c2ccccc2)c1 (centres unmarked) , readout=ED50 dose obtained experimentally, with emorfazone 10) returns 0.37 mg/kg

`COc1ccc2cc([C@H](C)C(=O)O)ccc2c1` yielded ED50 dose obtained experimentally, with emorfazone 10 of 6.2 mg/kg

For reference, reported ED50 dose obtained experimentally, with emorfazone 10 for `COc1ccc2c(c1)c(CC(=O)O)c(C)n2C(=O)c1ccc(Cl)cc1` stands at 0.33 mg/kg

For reference, reported ED50 dose obtained experimentally, with emorfazone 10 for CC(C(=O)O)c1ccc(-c2ccccc2)c(F)c1 (centres unmarked) stands at 6.2 mg/kg

----------
- experimentNotes: Anti-inflammatory Test by Whittle's Method (acetic acid, dye in peritoneal exudate)
- Assay type: in vivo, Male ddY mice
- settings: p.o.; combined with emorfazone 28.8 mg/kg
1 means recorded ED30 dose obtained experimentally, with emorfazone 28.8 is 8 mg/kg or above; -1 means it is below 8 mg/kg.

API: above_or_equal(metric=ED30 dose obtained experimentally, with emorfazone 28.8, cutoff=8 mg/kg) for item COc1ccc2cc([C@H](C)C(=O)O)ccc2c1 [Naproxen]
1

Threshold query (ED30 dose obtained experimentally, with emorfazone 28.8 >= 8 mg/kg) on CC(C)Cc1ccc(C(C)C(=O)O)cc1 (centres unmarked) [Ibuprofen]
1

Check if ED30 dose obtained experimentally, with emorfazone 28.8 >= 8 mg/kg (inclusive). Item: Cc1cccc(Nc2ccccc2C(=O)O)c1C [Mefenamic acid]
1

Entry CCCCC1C(=O)N(c2ccccc2)N(c2ccccc2)C1=O [Phenylbutazone] : is its ED30 dose obtained experimentally, with emorfazone 28.8 no less than 8 mg/kg?
1

Determine whether this compound has ED30 dose obtained experimentally, with emorfazone 28.8 no lower than 8 mg/kg: CC(C(=O)O)c1ccc(-c2ccccc2)c(F)c1 (centres unmarked) [Flurbiprofen]
-1

Reported ED30 dose obtained experimentally, with emorfazone 28.8 reaches at least 8 mg/kg for COc1ccc2c(c1)c(CC(=O)O)c(C)n2C(=O)c1ccc(Cl)cc1 [Indomethacin] ?
-1

Exam item: decide whether the reported ED30 dose obtained experimentally, with emorfazone 28.8 for CC(=O)Oc1ccccc1C(=O)O [Acetylsalicylic acid, acetylsalicylic acid] is at least 8 mg/kg.
1

Answer whether ED30 dose obtained experimentally, with emorfazone 28.8 of CC(C(=O)O)c1cccc(C(=O)c2ccccc2)c1 (centres unmarked) [Ketoprofen] is greater than or equal to 8 mg/kg.
-1

----------
- experimentNotes: in vivo
- settings: mouse, po
Give measured LD50 at 168 h for each item. Keep answers brief.
Returns: string containing the number followed by the unit.

Noted for CC(=O)Oc1ccccc1C(=O)O [Acetylsalicylic acid, acetylsalicylic acid] : its LD50 at 168 h reads 1260 mg/kg

Value of LD50 at 168 h reported for the compound CC(C(=O)O)c1cccc(C(=O)c2ccccc2)c1 (stereo not shown) [Ketoprofen] is 305 mg/kg

LD50 at 168 h reported for this compound COc1ccc2c(c1)c(CC(=O)O)c(C)n2C(=O)c1ccc(Cl)cc1 [Indomethacin] : 11.3 mg/kg

// LD50 at 168 h lookup, compound = CC(C(=O)O)c1ccc(-c2ccccc2)c(F)c1 (stereo not shown) [Flurbiprofen] , result: 210 mg/kg

----------
- experimentNotes: Anti-inflammatory Test by Whittle's Method (acetic acid, dye in peritoneal exudate)
- Format: in vivo, Male ddY mice
- settings: Mus musculus, po; read-out: ED30 (dose which decreased the amount of dye of the control group by 30%), drug alone
recordedMetric: ED30 (mg/kg)
Unit mg/kg implied. Number only.

Recorded ED30 (compound `CC(=O)Oc1ccccc1C(=O)O` ): 225

// recorded ED30 for CC(C)Cc1ccc(C(C)C(=O)O)cc1 (centres unmarked) : 76

Looking up `COc1ccc2c(c1)c(CC(=O)O)c(C)n2C(=O)c1ccc(Cl)cc1` , I found its ED30 recorded as 2.2

Per the records, this compound ( `CCOc1c(N2CCOCC2)cnn(C)c1=O` ) has ED30 equal to 115

Field ED30 (entry `COc1ccc2cc([C@H](C)C(=O)O)ccc2c1` ) reads 12

# compound `CCCCC1C(=O)N(c2ccccc2)N(c2ccccc2)C1=O` ; its ED30 = 175

Looking up `Cc1cccc(Nc2ccccc2C(=O)O)c1C` , I found its ED30 recorded as 82

Lab book: ED30 of CC(C(=O)O)c1cccc(C(=O)c2ccccc2)c1 (centres unmarked) noted as 3.2
